Assay: Metabolic stability in human liver microsomes assessed as compound remaining at 1 uM measured upto 60 mins in presence of NADPH
Format: ADME, Microsome
Conditions: read-out: Stability
Outcome Measure: remaining at 1 h, 1 µM (%)
Report the figure in % without appending any unit label.

Examples with answers:
Output remaining at 1 h, 1 µM of CCCn1cc(-c2cccc3nc([C@@H]4CC[C@H](C)N4c4nc(N)nc(N)c4C#N)n(-c4ccccc4)c(=O)c23)cn1
51.2

Output remaining at 1 h, 1 µM of C[C@H]1CC[C@@H](c2nc3cccc(-c4cnn(C5CC5)c4)c3c(=O)n2-c2ccccc2)N1c1nc(N)nc(N)c1C#N
45

Output remaining at 1 h, 1 µM of C[C@H]1CC[C@@H](c2nc3cccc(C#Cc4cccnc4)c3c(=O)n2-c2ccccc2)N1c1nc(N)nc(N)c1C#N
78.1

Output remaining at 1 h, 1 µM of C[C@H]1CC[C@@H](c2nc3cccc(Cl)c3c(=O)n2-c2ccccc2)N1c1nc(N)nc(N)c1C#N
67.9

Output remaining at 1 h, 1 µM of COc1cncc(-c2cccc3nc([C@@H]4CC[C@H](C)N4c4nc(N)nc(N)c4C#N)n(-c4ccccc4)c(=O)c23)c1
59.9

Output remaining at 1 h, 1 µM of C[C@H]1CC[C@@H](c2nc3cccc(Cl)c3c(=O)n2-c2ccccc2)N1c1nc(N)nc2[nH]cnc12
75.5

Here is the next item to consider.
Output remaining at 1 h, 1 µM of CCOc1cncc(-c2cccc3nc([C@@H]4CC[C@H](C)N4c4nc(N)nc(N)c4C#N)n(-c4ccccc4)c(=O)c23)c1
46.1

----------
Target: Phosphatidylinositol 4,5-bisphosphate 3-kinase catalytic subunit gamma isoform (Homo sapiens, UniProt P48736)
Sequence (P48736 whole entry, looked up, canonical isoform): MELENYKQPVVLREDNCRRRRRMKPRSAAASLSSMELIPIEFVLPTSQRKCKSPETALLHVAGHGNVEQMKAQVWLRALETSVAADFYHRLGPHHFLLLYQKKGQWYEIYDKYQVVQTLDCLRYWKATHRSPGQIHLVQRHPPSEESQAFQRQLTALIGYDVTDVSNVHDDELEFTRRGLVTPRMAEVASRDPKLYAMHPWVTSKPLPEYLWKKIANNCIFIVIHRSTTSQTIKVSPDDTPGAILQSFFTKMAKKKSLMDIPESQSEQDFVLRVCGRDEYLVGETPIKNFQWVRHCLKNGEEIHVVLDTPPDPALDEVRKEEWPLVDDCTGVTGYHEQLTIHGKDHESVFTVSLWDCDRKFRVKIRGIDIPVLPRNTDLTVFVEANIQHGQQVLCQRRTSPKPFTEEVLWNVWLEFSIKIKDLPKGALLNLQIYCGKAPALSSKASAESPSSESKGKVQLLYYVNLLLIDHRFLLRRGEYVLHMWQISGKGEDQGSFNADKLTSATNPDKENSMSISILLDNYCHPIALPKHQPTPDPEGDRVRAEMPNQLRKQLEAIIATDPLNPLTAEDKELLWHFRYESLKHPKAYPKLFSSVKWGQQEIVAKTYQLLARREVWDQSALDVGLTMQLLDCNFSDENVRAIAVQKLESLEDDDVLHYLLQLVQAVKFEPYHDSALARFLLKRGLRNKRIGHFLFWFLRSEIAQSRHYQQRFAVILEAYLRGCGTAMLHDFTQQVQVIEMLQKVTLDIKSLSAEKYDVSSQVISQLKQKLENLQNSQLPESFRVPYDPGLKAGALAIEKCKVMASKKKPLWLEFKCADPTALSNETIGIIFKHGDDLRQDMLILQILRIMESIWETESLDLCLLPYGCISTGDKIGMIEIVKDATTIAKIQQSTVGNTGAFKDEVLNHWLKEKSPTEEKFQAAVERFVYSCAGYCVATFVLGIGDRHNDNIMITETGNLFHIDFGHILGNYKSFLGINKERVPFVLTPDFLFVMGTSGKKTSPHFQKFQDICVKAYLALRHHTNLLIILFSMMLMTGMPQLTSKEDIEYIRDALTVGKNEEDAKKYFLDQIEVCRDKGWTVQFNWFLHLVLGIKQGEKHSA
Assay: Inhibition of N-terminal His6-tagged recombinant full length human PI3Kgamma expressed in baculovirus infected Sf21 insect cells at 0.1 uM by HTRF assay relative to control
Recorded inhibition, one value per entry.

Examples with answers:
Output inhibition of C[C@H]1CC[C@@H](c2nc3cccc(Cl)c3c(=O)n2-c2ccccc2)N1c1nc(F)nc2[nH]cnc12
76%

Output inhibition of CCOc1cncc(-c2cccc3nc([C@@H]4CC[C@H](C)N4c4nc(N)nc(N)c4C#N)n(-c4ccccc4)c(=O)c23)c1
-8%

Output inhibition of Cc1ccc(C#Cc2cccc3nc([C@@H]4CC[C@H](C)N4c4nc(N)nc(N)c4C#N)n(-c4ccccc4)c(=O)c23)cc1
80%

Output inhibition of Cc1ccccc1C#Cc1cccc2nc([C@@H]3CC[C@H](C)N3c3nc(N)nc(N)c3C#N)n(-c3ccccc3)c(=O)c12
65%

Output inhibition of C[C@H]1CC[C@@H](c2nc3cccc(-c4cnn(C5CC5)c4)c3c(=O)n2-c2ccccc2)N1c1nc(N)nc(N)c1C#N
-2%

Further cases:
Output inhibition of C[C@H]1CC[C@@H](c2nc3ccc(Cl)cc3c(=O)n2-c2cccnc2)N1c1nc(N)nc(N)c1C#N
89%

Output inhibition of N#Cc1c(N)nc(N)nc1N1[C@H](c2nc3cccc(F)c3c(=O)n2-c2cc(F)cc(F)c2)C[C@@H]2CCCC[C@@H]21
93%

Output inhibition of C[C@H]1CC[C@@H](c2nc3cccc(-c4cncnc4)c3c(=O)n2-c2ccccc2)N1c1nc(N)nc(N)c1C#N
57%

Output inhibition of C[C@H]1CC[C@@H](c2nc3cccc(Cl)c3c(=O)n2N2CCOCC2)N1c1nc(N)nc(N)c1C#N
10%

Output inhibition of C[C@H]1CC[C@@H](c2nc3cccc(Cl)c3c(=O)n2N2CCOCC2)N1c1nc(N)nc2[nH]cnc12
45%

Output inhibition of C[C@H]1CC[C@@H](c2nc3ccc(F)cc3c(=O)n2-c2cccnc2)N1c1nc(N)nc(N)c1C#N
91%

Output inhibition of C[C@H]1CC[C@@H](c2nc3cccc(Cl)c3c(=O)n2-c2cccnc2)N1c1nc(N)nc2[nH]cnc12
39%

Output inhibition of COc1ccc(C#Cc2cccc3nc([C@@H]4CC[C@H](C)N4c4nc(N)nc(N)c4C#N)n(-c4ccccc4)c(=O)c23)cc1
83%

Output inhibition of COc1cncc(-c2cccc3nc([C@@H]4CC[C@H](C)N4c4nc(N)nc(N)c4C#N)n(-c4ccccc4)c(=O)c23)c1
12%

Output inhibition of Cc1cc(N2[C@@H](C)CC[C@H]2c2nc3cccc(Cl)c3c(=O)n2-c2ccccc2)nc(N)n1
99%
